Values compiled from ChEMBL document CHEMBL1127726.

- System: Adenosine receptor A1 (Mesocricetus auratus)
- Test method notes: Loss of specific binding of [3H]CPX to the A1-adenosine receptor of DDT1 MF-2 (DDT) cells at a concentration of 10 uM
Hi! Just check whether Loss is below 50%. Below gives fulfilled, equal or above gives not fulfilled.

A selection of reference data follows.
{"columns": ["Compound structure string", "Discrete label"],
 "data": [
  ["CCCn1c(=O)c2nc(CCCNC(=O)c3cccc(S(=O)(=O)F)c3)[nH]c2n(CCC)c1=O", "fulfilled"],
  ["CCCn1c(=O)c2nc(CCNC(=O)CBr)[nH]c2n(CCC)c1=O", "fulfilled"],
  ["CCCn1c(=O)c2nc(CNC(=O)c3ccc(S(=O)(=O)F)cc3)[nH]c2n(CCC)c1=O", "not fulfilled"],
  ["CCCn1c(=O)c2nc(CNC(=O)CBr)[nH]c2n(CCC)c1=O", "fulfilled"],
  ["CCCn1c(=O)c2nc(NC(=O)c3ccc(S(=O)(=O)F)cc3)[nH]c2n(CCC)c1=O", "not fulfilled"],
  ["CCCn1c(=O)c2nc(CCNC(=O)c3ccc(S(=O)(=O)F)cc3)[nH]c2n(CCC)c1=O", "not fulfilled"],
  ["CCCn1c(=O)c2nc(-c3ccc(Cl)c([N+](=O)[O-])c3)[nH]c2n(CCC)c1=O", "fulfilled"],
  ["CCCn1c(=O)c2nc(CCCCCN3C(=O)C=CC3=O)[nH]c2n(CCC)c1=O", "fulfilled"],
  ["CCCn1c(=O)c2nc(CCCCCNC(=O)CBr)[nH]c2n(CCC)c1=O", "fulfilled"]
]}

Switching to the query record.
Q: Problem: For the compound `CCCn1c(=O)c2nc(NC(=O)c3cccc(S(=O)(=O)F)c3)[nH]c2n(CCC)c1=O` , is Loss under 50%?
A: not fulfilled

----------
- Tested system: Adenosine receptor A1
- Test method notes: Specific binding of [3H]CPX to the A1-adenosine receptor
Readout label: Kd (nM)
Enter your answer as a number in nM; do not include the unit.

Worked set:
{"columns": ["Compound", "Kd [nM]"],
 "data": [
  ["O=C(OCCCn1c(=O)c2[nH]c(C3CCCC3)nc2n(CCCOC(=O)c2ccc(S(=O)(=O)F)cc2)c1=O)c1ccc(S(=O)(=O)F)cc1", 0.82],
  ["CCCn1c(=O)c2[nH]c(CCCNC(=O)c3cccc(S(=O)(=O)F)c3)nc2n(CCC)c1=O", 0.86]
]}

Q: Hello, I am looking for reported Kd with Adenosine receptor A1 for `CCCn1c(=O)c2nc(NC(=O)c3ccc(S(=O)(=O)F)cc3)[nH]c2n(CCC)c1=O` . Could you help?
A: 1.1

Q: How about this compound: CCCn1c(=O)c2[nH]c(C3CCCC3)nc2n(CC(C)OC(=O)CBr)c1=O (stereo unspecified)
A: 1.1

Q: How about this compound: `CCCn1c(=O)c2nc(CCNC(=O)c3ccc(S(=O)(=O)F)cc3)[nH]c2n(CCC)c1=O`
A: 0.74

Q: How about this compound: `CCCn1c(=O)c2[nH]c(NC(=O)c3cccc(S(=O)(=O)F)c3)nc2n(CCC)c1=O`
A: 0.79

----------
- System: Adenosine receptor A1 (Mesocricetus auratus)
- Test method notes: Loss of specific binding of [3H]CPX to the A1-adenosine receptor of DDT1 MF-2 (DDT) cells at a concentration of 1 uM
The following compounds are listed with their measured Loss values.
Enter your answer as a number in %; do not include the unit.

{"columns": ["Compound", "Loss (%)"],
 "data": [
  ["CCCn1c(=O)c2nc(CNC(=O)c3ccc(S(=O)(=O)F)cc3)[nH]c2n(CCC)c1=O", 72],
  ["CCCn1c(=O)c2nc(C3CCC(OC(=O)c4ccc(S(=O)(=O)F)cc4)C3)[nH]c2n(CCC)c1=O (centres undefined)", 16],
  ["CCCn1c(=O)c2nc(C3CCCC3)[nH]c2n(CC(C)OC(=O)CBr)c1=O (centres undefined)", 0]
]}

Here is the next item to consider.
Q: Hello, I am looking for reported Loss with Adenosine receptor A1 (Mesocricetus auratus) for `CCCn1c(=O)c2nc(C3CCCC3)[nH]c2n(CCCOC(=O)c2cccc(S(=O)(=O)F)c2)c1=O` . Could you help?
A: 11
